Molecular target: BCAT2 (Homo sapiens, UniProt O15382)
Sequence (O15382 28-392): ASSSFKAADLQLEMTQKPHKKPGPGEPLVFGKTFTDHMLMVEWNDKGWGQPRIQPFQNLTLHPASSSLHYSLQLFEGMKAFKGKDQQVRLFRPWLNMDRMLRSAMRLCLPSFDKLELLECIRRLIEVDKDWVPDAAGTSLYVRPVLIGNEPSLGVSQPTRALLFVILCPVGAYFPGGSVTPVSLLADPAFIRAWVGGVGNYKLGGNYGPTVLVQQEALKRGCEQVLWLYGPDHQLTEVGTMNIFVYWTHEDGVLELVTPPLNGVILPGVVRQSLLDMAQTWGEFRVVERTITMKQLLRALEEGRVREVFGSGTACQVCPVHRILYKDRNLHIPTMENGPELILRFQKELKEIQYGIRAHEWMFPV
Assay: BCAT2 in vitro enzyme inhibition assay (resazurin/diaphorase-coupled fluorescence)
Assay type: biochemical
Settings: average where tested multiple times

>  <molecule>
CO[C@H]1C[C@H](NC(=O)c2ncc(Cl)s2)C[C@H](n2c(CC(C)C)nc3cnc(-n4cncn4)cc32)C1 [Example 417]

>  <IC50>
100 to 500 nM

$$$$
>  <molecule>
CC(C)Cc1nc2cnc(-n3nccn3)cc2n1[C@@H]1CCC[C@H](NC(=O)c2ncc(Cl)s2)[C@H]1O [Example 227]

>  <IC50>
≤ 100 nM

$$$$
>  <molecule>
O=C(N[C@H]1CCC[C@@H](n2c(-c3ccccc3F)nc3cnc(-c4cc(F)ccn4)cc32)C1)c1ncc(Cl)s1 [Example 168]

>  <IC50>
≤ 100 nM

$$$$
>  <molecule>
O=C(N[C@H]1CCC[C@@H](n2c(-c3ncccc3F)nc3cnc(-n4nccn4)cc32)C1)c1ncc(C(F)(F)F)s1 [Example 65]

>  <IC50>
≤ 100 nM

$$$$
>  <molecule>
Cn1nccc1-c1nc2cnc(-n3nccn3)cc2n1[C@@H]1CCC[C@H](NC(=O)c2ncc(C(F)F)s2)C1 [Example 43]

>  <IC50>
≤ 100 nM

$$$$
>  <molecule>
CC(C)Cc1nc2cnc(-n3nccn3)cc2n1[C@@H]1COC[C@H](NC(=O)c2ccc(Cl)s2)C1 (single isomer, unassigned) [Example 141]

>  <IC50>
≤ 100 nM

$$$$
>  <molecule>
O=C(N[C@H]1C[C@H](O)C[C@@H](n2c(-c3ccccc3F)nc3cnc(F)cc32)C1)c1ncc(Cl)s1 [Example 276]

>  <IC50>
≤ 100 nM

$$$$
>  <molecule>
CC(=O)N1CC(NC(=O)c2ncc(C(F)F)s2)CC(n2c(-c3ccccc3F)nc3cnc(-n4ccnn4)cc32)C1 (stereo not drawn) [Example 124]

>  <IC50>
≤ 100 nM

$$$$
>  <molecule>
O=C(NC1CNCC(n2c(-c3ncccc3F)nc3cnc(-n4nccn4)cc32)C1)c1ncc(C(F)F)s1 (stereo not drawn) [Example 125]

>  <IC50>
≤ 100 nM

$$$$
>  <molecule>
O=C(O)CCc1ccccc1-c1nc2cnc(-n3nccn3)cc2n1[C@@H]1CCC[C@H](NC(=O)c2ncc(C(F)F)s2)C1 [Example 100]

>  <IC50>
500 to 1000 nM

$$$$
>  <molecule>
O=C(N[C@@H]1C[C@@H](O)C[C@H](n2c(-c3ccccc3F)nc3cnc(-c4ccn[nH]4)cc32)C1)c1ncc(Cl)s1 (single isomer, unassigned) [Example 259]

>  <IC50>
100 to 500 nM

$$$$
>  <molecule>
O=C(NC1COCC(n2c(-c3ccccc3F)nc3cnc(-n4nccn4)cc32)C1)c1ncc(C(F)F)s1 (single isomer, unassigned) [Example 143]

>  <IC50>
100 to 500 nM

$$$$
>  <molecule>
CC(O)CN1CC(NC(=O)c2ncc(C(F)F)s2)CC(n2c(-c3ncccc3F)nc3cnc(-n4nccn4)cc32)C1 (stereo not drawn) [Example 129]

>  <IC50>
≤ 100 nM

$$$$
>  <molecule>
O=C(N[C@H]1CCC[C@@H](n2c(-c3ncccc3F)nc3cnc(-n4ccnn4)cc32)C1)c1ncc(C(F)F)s1 [Example 37]

>  <IC50>
100 to 500 nM

$$$$
>  <molecule>
CC(C)Cc1nc2cnc(-c3cccc4ccoc34)cc2n1[C@@H]1CCC[C@H](NC(=O)c2ncc(Cl)s2)C1 [Example 327]

>  <IC50>
100 to 500 nM

$$$$
>  <molecule>
CC(C)Cc1nc2cnc(-c3nc[nH]n3)cc2n1[C@@H]1CCC[C@H](NC(=O)c2ncc(Cl)s2)[C@H]1O [Example 250]

>  <IC50>
≤ 100 nM

$$$$
>  <molecule>
CC(C)Cc1nc2cnc(-n3nccn3)cc2n1[C@@H]1COC[C@H](NC(=O)c2ccc(Cl)s2)C1 (single isomer, unassigned) [Example 140]

>  <IC50>
> 1000 nM

$$$$
>  <molecule>
O=C(N[C@H]1CCC[C@@H](n2c(-c3ccccc3F)nc3cnc(-c4ncco4)cc32)[C@@H]1O)c1ncc(Cl)s1 [Example 248]

>  <IC50>
≤ 100 nM

$$$$
>  <molecule>
O=C(N[C@H]1CCC[C@@H](n2c(-c3ccccn3)nc3cnc(-c4ncco4)cc32)C1)c1ccc(Br)s1 [Example 5]

>  <IC50>
≤ 100 nM

$$$$
>  <molecule>
CC(C)Oc1nc2cnc(-n3ccnn3)cc2n1[C@@H]1CCC[C@H](NC(=O)c2ncc(C(F)F)s2)C1 [Example 97]

>  <IC50>
> 1000 nM

$$$$
>  <molecule>
Cc1coc(-c2cc3c(cn2)nc(CC(C)C)n3[C@@H]2CCC[C@H](NC(=O)c3ncc(Cl)s3)C2)n1 [Example 306]

>  <IC50>
≤ 100 nM

$$$$
>  <molecule>
Cc1coc(-c2cc3c(cn2)nc(-c2ccccc2F)n3[C@@H]2CCC[C@H](NC(=O)c3ncc(Cl)s3)[C@H]2O)n1 [Example 238]

>  <IC50>
≤ 100 nM

$$$$
>  <molecule>
Cn1cc(-c2nc3cnc(-n4nccn4)cc3n2[C@@H]2CCC[C@H](NC(=O)c3ncc(C(F)F)s3)C2)cn1 [Example 45]

>  <IC50>
> 1000 nM

$$$$
>  <molecule>
CC(C)Cc1nc2cnc(-n3nccn3)cc2n1[C@@H]1CCC[C@H](NC(=O)c2ncc(Cl)s2)C1 [Example 84]

>  <IC50>
≤ 100 nM

$$$$
>  <molecule>
CNC(=O)c1cc2nc(CC(C)C)n([C@H]3CCC[C@@H](NC(=O)c4ncc(Cl)s4)[C@@H]3O)c2cn1 [Example 279]

>  <IC50>
> 1000 nM

$$$$
>  <molecule>
CC(C)Cc1nc2cnc(-c3ccc4ccoc4c3)cc2n1[C@@H]1CCC[C@H](NC(=O)c2ncc(Cl)s2)C1 [Example 319]

>  <IC50>
100 to 500 nM

$$$$
>  <molecule>
O=C(O)Cc1ccccc1-c1nc2cnc(-n3nccn3)cc2n1[C@@H]1CCC[C@H](NC(=O)c2ncc(C(F)F)s2)C1 [Example 96]

>  <IC50>
100 to 500 nM

$$$$
